# assayOverview: Balb/C mouse pharmacokinetics (plasma, colon, ileum)
# Assay type: in vivo
# studyConditions: male, plasma, po, Balb/C mice, p.o. 5 mg/kg, blood, read-out: Curve area AUC0-∞
Entries whose AUC(0-inf) is below 30 ng·h/mL take class 1; entries at or above 30 ng·h/mL take class 0.

Below, 3 compounds whose answers are already recorded.
Cc1cc(Nc2nc(N[C@@H]3C[C@@H]4CN(CCC#N)C[C@@H]4C3)nc3ccsc23)n[nH]1 [Embodiment 299]: class 1
Cc1cc(Nc2nc(N(C)[C@@H]3C[C@H]4CCC[C@@H](C3)N4C(=O)CN3CCN(C)CC3)nc3sccc23)n[nH]1 [Embodiment 257]: class 0
Cc1cc(Nc2nc(N[C@@H]3C[C@H]4CCC[C@@H](C3)N4C(=O)CN3CCOCC3)nc3ccsc23)n[nH]1 [Embodiment 288]: class 1

Here is the next item to consider.
Query :: Input Cc1cnc(Nc2cc3ncccc3c(N[C@@H]3C[C@H]4CC[C@@H](C3)N4CCC#N)n2)s1 [Embodiment 1] ; condition: AUC(0-inf) strictly below 30 ng·h/mL. Does it hold?
Result :: class 0

====

MRT values by entry
# assayOverview: Balb/C mouse pharmacokinetics (plasma, colon, ileum)
# Type: in vivo
# studyConditions: male, plasma, po, Balb/C mice, p.o. 5 mg/kg, blood, read-out: Mean detention time MRT
Unit h implied. Number only.

Use these answered entries as a reference point.
Cc1cc(Nc2nc(N[C@@H]3C[C@H]4CCC[C@@H](C3)N4C(=O)c3ccncc3)nc3sccc23)n[nH]1 [Embodiment 262]: 1.77
COc1ccc2c(Nc3cc(C)[nH]n3)nc(N[C@@H]3C[C@H]4CC[C@@H](C3)N4CCC#N)nc2c1 [Embodiment 169]: 1.08
Cc1cc(Nc2nc(N[C@@H]3C[C@H]4CCC[C@@H](C3)N4C(=O)c3ccccn3)nc3sccc23)n[nH]1 [Embodiment 260]: 1.37

With those in mind, consider the next molecule.
Query :: Item Cc1cc(Nc2nc(N[C@@H]3C[C@H]4CCC[C@@H](C3)N4C(=O)c3nccn3C)nc3sccc23)n[nH]1 [Embodiment 263] has what recorded MRT?
Result :: 3.51

====

// IC50 collected for UniProtKB P52333
Sequence (P52333 whole entry): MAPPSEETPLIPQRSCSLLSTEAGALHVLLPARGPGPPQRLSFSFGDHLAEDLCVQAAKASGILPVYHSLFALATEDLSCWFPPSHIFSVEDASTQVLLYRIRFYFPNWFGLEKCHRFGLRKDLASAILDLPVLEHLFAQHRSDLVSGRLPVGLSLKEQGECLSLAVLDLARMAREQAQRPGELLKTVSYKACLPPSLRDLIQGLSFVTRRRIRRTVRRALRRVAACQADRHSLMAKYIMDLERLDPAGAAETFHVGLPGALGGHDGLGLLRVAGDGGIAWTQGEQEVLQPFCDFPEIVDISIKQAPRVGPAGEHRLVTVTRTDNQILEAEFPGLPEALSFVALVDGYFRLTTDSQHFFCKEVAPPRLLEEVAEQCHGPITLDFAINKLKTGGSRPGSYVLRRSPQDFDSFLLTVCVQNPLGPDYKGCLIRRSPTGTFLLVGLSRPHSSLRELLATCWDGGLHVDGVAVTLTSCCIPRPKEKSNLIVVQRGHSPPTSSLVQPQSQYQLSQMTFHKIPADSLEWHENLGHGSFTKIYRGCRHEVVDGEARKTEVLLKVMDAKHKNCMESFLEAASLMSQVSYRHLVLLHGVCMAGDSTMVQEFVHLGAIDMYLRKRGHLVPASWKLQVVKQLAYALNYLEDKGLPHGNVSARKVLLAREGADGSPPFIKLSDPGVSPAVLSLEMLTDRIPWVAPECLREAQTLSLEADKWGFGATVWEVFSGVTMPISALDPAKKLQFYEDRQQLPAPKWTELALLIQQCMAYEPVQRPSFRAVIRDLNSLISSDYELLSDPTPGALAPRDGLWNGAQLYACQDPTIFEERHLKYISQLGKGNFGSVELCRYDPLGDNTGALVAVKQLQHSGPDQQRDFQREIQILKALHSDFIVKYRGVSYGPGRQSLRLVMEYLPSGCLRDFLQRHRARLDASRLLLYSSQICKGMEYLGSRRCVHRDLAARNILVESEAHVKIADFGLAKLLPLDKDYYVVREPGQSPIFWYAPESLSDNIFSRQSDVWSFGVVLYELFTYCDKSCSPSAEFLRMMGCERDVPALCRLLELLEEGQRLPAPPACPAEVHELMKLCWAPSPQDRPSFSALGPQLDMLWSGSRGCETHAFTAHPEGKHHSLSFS
Unit nM implied. Number only.

Cc1cc(Nc2nc(N[C@@H]3C[C@H]4CC[C@@H](C3)N4S(=O)(=O)N3CC(C#N)C3)nc3ccccc23)n[nH]1 [Embodiment 213]: 12.6
CN(c1nc(Nc2cc(CO)[nH]n2)c2ccsc2n1)[C@@H]1C[C@H]2CCC[C@@H](C1)N2S(=O)(=O)N1CC(C#N)C1 [Embodiment 132]: 3.43

Query :: Item COc1ccc2c(Nc3cc(C)[nH]n3)nc(N(C)[C@@H]3C[C@H]4CC[C@@H](C3)N4S(=O)(=O)N3CC(C#N)C3)nc2c1 [Embodiment 218] has what recorded IC50?
Result :: 19.6

====

# assayOverview: Balb/C mouse pharmacokinetics (plasma, colon, ileum)
# Format: in vivo
# studyConditions: male, plasma, po, Balb/C mice, p.o. 5 mg/kg, blood, read-out: Time to peak tmax
readoutType: Tmax (h)
Unit h implied. Number only.

Cc1cc(Nc2nc(N[C@@H]3C[C@H]4CCC[C@@H](C3)N4S(=O)(=O)N3CC(C#N)C3)nc3sccc23)n[nH]1: 1
Cc1cc(Nc2nc(N[C@@H]3C[C@H]4CC[C@@H](C3)N4CCC#N)nc3cc(Br)ccc23)n[nH]1: 7

Query :: Item Cc1cnc(Nc2cc3ncccc3c(N[C@@H]3C[C@H]4CC[C@@H](C3)N4CCC#N)n2)s1 has what recorded Tmax?
Result :: 0.5

Query :: Same again, this time with Cc1cc(Nc2nc(N[C@@H]3C[C@H]4CC[C@@H](C3)N4S(=O)(=O)N3CC(C#N)C3)nc3cc(Cl)ccc23)n[nH]1
Result :: 3
